TARGET DESC: furin (endogenous protease) in U20S cells (Homo sapiens)
Construct: the endogenous protease cleaves GFP; endogenous in cells; host or cells: U2OS cells transduced with a BacMam reporter
ASSAY NOTES: Furin cell-based assay (image-based, Golgi-targeted GFP with BMP10 furin/PCSK cleavage site)
PARTICULARS: 24-hour incubation, read-out: furin golgi cell pXC50 (converted)
PROPERTY MEASURED: EC50 (nM)
Number in nM, nothing else.

// solved cases for EC50 follow
Exercise: Field request: EC50 | item: O=C(O)CC1CCN(Cc2cc(-c3cc(Cl)cc(Cl)c3)nc(Oc3cnc(N4CC5CCC(C4)N5)nc3)c2F)CC1
Key: 6.31

Exercise: Next: CC(=O)NCC1CCN(Cc2cc(Oc3ccc(N4CCN(CCC(C)C(=O)O)CC4)nc3)nc(-c3cc(Cl)cc(Cl)c3)c2)CC1 (stereo not drawn)
Key: 20

Please look at the following compound next.
Exercise: Quick one: EC50 for CC(=O)NCC1CCN(Cc2cc(Oc3cnc(N4CC5CCC(C4)N5CCC(=O)O)nc3)nc(-c3cc(Cl)cc(Cl)c3)c2)CC1 ?
Key: 10

====

TARGET DESC: furin (endogenous protease) in U20S cells (Homo sapiens, UniProt P09958)
Construct: the endogenous protease cleaves GFP; endogenous in cells; host or cells: U2OS cells transduced with a BacMam reporter
Sequence (P09958 108-794): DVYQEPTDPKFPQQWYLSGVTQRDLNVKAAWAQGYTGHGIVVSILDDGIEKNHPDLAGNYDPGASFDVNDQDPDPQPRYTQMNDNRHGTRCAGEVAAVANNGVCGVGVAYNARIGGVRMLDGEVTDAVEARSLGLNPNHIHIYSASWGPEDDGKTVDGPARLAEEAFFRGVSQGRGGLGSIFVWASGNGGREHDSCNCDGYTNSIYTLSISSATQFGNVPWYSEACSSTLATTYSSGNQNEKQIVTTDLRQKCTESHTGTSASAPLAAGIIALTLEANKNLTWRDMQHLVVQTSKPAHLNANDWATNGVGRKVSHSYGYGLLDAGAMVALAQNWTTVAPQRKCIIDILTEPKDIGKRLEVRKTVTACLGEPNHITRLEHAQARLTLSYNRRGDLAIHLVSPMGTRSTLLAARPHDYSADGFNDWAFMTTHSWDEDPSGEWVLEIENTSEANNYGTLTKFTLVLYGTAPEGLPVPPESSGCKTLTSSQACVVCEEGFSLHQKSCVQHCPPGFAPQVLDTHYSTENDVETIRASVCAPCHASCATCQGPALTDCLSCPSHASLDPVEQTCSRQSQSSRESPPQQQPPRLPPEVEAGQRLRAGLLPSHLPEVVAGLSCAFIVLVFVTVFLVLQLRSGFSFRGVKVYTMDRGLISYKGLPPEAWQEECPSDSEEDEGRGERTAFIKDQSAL
ASSAY NOTES: Furin cell-based assay (image-based, Golgi-targeted GFP with BMP10 furin/PCSK cleavage site)
PARTICULARS: 24-hour incubation, read-out: furin golgi cell pXC50 (converted)
Structures can show the parent of a compound that is named as a salt.
PROPERTY MEASURED: EC50 (nM)
Report the value in nM with no unit label.

Solved entries:
Exercise: # get_value(readout='EC50', item= CC(=O)NCC1CCN(Cc2cc(Oc3ccc(N4CC[C@@H](N)[C@@H](F)C4)nc3)nc(-c3cc(Cl)cc(Cl)c3)c2)CC1 (relative stereo) )
Key: 1.58

Exercise: // same read-out, input: O=S(=O)(O)CC1CCN(Cc2cc(Oc3ccc(N4CCNCC4)nc3)nc(-c3cc(Cl)cc(Cl)c3)c2)CC1 [Example 8, hydrochloride]
Key: 200

Exercise: Try this molecule too: CC(=O)NCC1CCN(Cc2cc(Oc3cnc(N)c(F)c3)cc(-c3cc(Cl)cc(Cl)c3)c2)CC1 [Example 46, hydrochloride]
Key: 501

New cases:
Exercise: # lookup: EC50 of CC(=O)NCC1CCN(Cc2cc(Oc3ccc(N4CCN(C)CC(F)C4)nc3)nc(-c3cc(Cl)cc(Cl)c3)c2)CC1 (stereo not shown)
Key: 2

====

TARGET DESC: furin (endogenous protease) in U20S cells (Homo sapiens, UniProt P09958)
Construct: the endogenous protease cleaves GFP; endogenous in cells; host or cells: U2OS cells transduced with a BacMam reporter
ASSAY NOTES: Furin cell-based assay (image-based, Golgi-targeted GFP with BMP10 furin/PCSK cleavage site);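 further: Read-out is mean GFP fluorescence of Golgi puncta per cell by high-content imaging, retained when furin inhibited, over an eleven-point 0.00017–10 µM series, four-parameter fit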
PARTICULARS: 24-hour incubation, read-out: furin golgi cell pXC50 (converted)
Counter-ions that a name gives are not always drawn.
Assign labels as follows, please: Fulfilled for EC50 below 30 nM; Not fulfilled for EC50 equal to or exceeding 30 nM.

Exercise: Given CN1CCN(c2ccc(Oc3cc(CN4CCC(CC(=O)O)CC4)cc(-c4cc(Cl)cc(Cl)c4)n3)nn2)CC1 [Example 359] , is recorded EC50 strictly lower than 30 nM?
Key: Not fulfilled

Next:
Exercise: For CC(=O)NCC1CCN(Cc2cc(Oc3ccc(N4C[C@H](CN)[C@@H](O)C4)nc3)nc(-c3cc(Cl)cc(Cl)c3)c2)CC1 (relative stereo) [Example 184] , is the recorded EC50 below the cut-off of 30 nM?
Key: Fulfilled

Exercise: Another compound: COC1CN(C)CCN(c2ncc(Oc3cc(CN4CCC(CC(=O)O)CC4)cc(-c4cc(Cl)cc(Cl)c4)n3)cn2)C1 (stereo not drawn) [Example 144]
Key: Fulfilled

Exercise: Also need CC(CC(=O)O)C1CN(Cc2cc(Oc3cnc(N4CCN(C)CC4)nc3)nc(-c3cc(Cl)cc(Cl)c3)c2)C1 (stereo not drawn) [Example 127] , thanks.
Key: Not fulfilled

Exercise: Also check COC(=O)NCC1CCN(Cc2cc(Oc3cnc(N4CCN(CCC(=O)O)CC4)nc3)nc(-c3cc(Cl)cc(Cl)c3)c2)CC1 [Example 62, hydrochloride]
Key: Not fulfilled

Exercise: Item: CC(O)CCN1CCN(c2ncc(Oc3cc(CN4CCC(F)CC4)cc(-c4cc(Cl)cc(Cl)c4)n3)cn2)CC1 (stereo not drawn) [Example 60]
Key: Fulfilled
